system: HEK293T (UBE3A T485A transfected, BAR Wnt reporter); assay: Wnt reporter firefly/Renilla luciferase ratio relative to plate median (fold (linear ratio)); higher = more Wnt/beta-catenin reporter activation; conditions: concentration: 10 uM; 24 h
Over roughly 1,100 compounds, “Wnt reporter firefly/Renilla luciferase ratio relative to plate median” has its median near 1.1; the highest 2% begin near 1.6. Many of the other results were omitted from the sample, so the highest values are more common in it than they were.
readout: Wnt reporter firefly/Renilla luciferase ratio
One number for each entry.

OCC(O)CO [Glycerol] :: 1.05

For every item in the list below, what is its measured Wnt reporter firefly/Renilla luciferase ratio?
1. O=C(O)c1cn(C2CC2)c2cc(N3CCNCC3)c(F)cc2c1=O [Ciprofloxacin]
2. O=C(OCCOCCOC(=O)c1ccccc1)c1ccccc1 [Diethylene glycol dibenzoate]

Output line:
0.882
1.34

For every item in the list below, what is its measured Wnt reporter firefly/Renilla luciferase ratio?
1. CC1COc2c(N3CCN(C)CC3)c(F)cc3c(=O)c(C(=O)O)cn1c23 (centres undefined) [Levofloxacin]
2. CC1(C)C(=O)NC(=O)N1CO [1-(Hydroxymethyl)-5,5-dimethylhydantoin]
3. Cc1ccc(N(C)C)cc1 [N,N,4-Trimethylaniline]

Output line:
[1.11, 1.12, 1.06]

For every item in the list below, what is its measured Wnt reporter firefly/Renilla luciferase ratio?
1. CC[C@@H]1C[C@H](N(Cc2cc(C(F)(F)F)cc(C(F)(F)F)c2)C(C)=O)c2cc(C(F)(F)F)ccc2N1C(=O)OC(C)C
2. OCCO [Ethylene glycol]
3. COC(=O)c1ccccc1C(=O)O [Monomethyl phthalate]

Output line:
1. 1.2
2. 1.12
3. 1.11

###

Exercise: for every item that follows, state its recorded Wnt reporter firefly/Renilla luciferase ratio.
tested on: HEK293T (UBE3A T485A transfected, BAR Wnt reporter); test: Wnt reporter firefly/Renilla luciferase ratio relative to plate median (fold (linear ratio)); higher = more Wnt/beta-catenin reporter activation; settings: concentration: 100 uM; 24 h
The full ranking holds about 1,100 compounds; the median of “Wnt reporter firefly/Renilla luciferase ratio relative to plate median” is about 1.1, and the highest 2% start at about 1.6. Many of the other results were omitted from the sample, so the highest values are more common in it than they were.
Answers are plain numbers.

For every item in the list below, what is its measured Wnt reporter firefly/Renilla luciferase ratio?
1. O=C1c2c(O)cccc2Cc2cccc(O)c21
2. CCSC(=O)N(CC(C)C)CC(C)C [Butylate]
3. O=C(OCCCCCCOC(=O)c1ccccc1)c1ccccc1 [Hexane-1,6-diyl dibenzoate]

Output line:
1. 0.798
2. 0.486
3. 1.37

For every item in the list below, what is its measured Wnt reporter firefly/Renilla luciferase ratio?
1. [Cl-].[Li+]
2. CCOC(=O)C(C)Oc1ccc(Oc2cnc3cc(Cl)ccc3n2)cc1 (configuration not stated)
3. CC1CCC(NC(=O)N(CCCl)N=O)CC1 (configuration not stated)
4. CC(=O)OC/C=C(\C)CCC=C(C)C [Geranyl acetate]
5. COC(=O)CC(=O)OC [Dimethyl malonate]

Output line:
1.27
0.981
0.475
1.23
1.28

For every item in the list below, what is its measured Wnt reporter firefly/Renilla luciferase ratio?
1. CCCCCCCCO
2. CCOC(=O)C(C)Oc1ccc(Oc2nc3ccc(Cl)cc3o2)cc1 (configuration not stated)
3. CC1(C)C(=O)N(Br)C(=O)N1Br
4. CC[C@H](c1ccc(O)cc1)[C@@H](CC)c1ccc(O)cc1
5. CC(C)c1cccc(C(C)C)c1
6. C[C@@H](Oc1ccc(CNC(=O)c2cccnc2Oc2ccc3c(c2)OCO3)c(F)c1)C(=O)O

Output line:
1. 1.09
2. 0.813
3. 1.25
4. 0.0535
5. 1.5
6. 1.33

For every item in the list below, what is its measured Wnt reporter firefly/Renilla luciferase ratio?
1. CCCCCCCCOc1ccc(C(=O)c2ccccc2)c(O)c1
2. O=c1[nH]c2ccc(S(=O)CCN3CCC(Cc4ccc(F)cc4)CC3)cc2o1 (configuration not stated)
3. CCCCC(CC)COC(=O)CCCCC(=O)OCc1ccccc1 (configuration not stated) [Benzyloctyl adipate]
4. CC(=O)OC1C(=O)C2(C)C(O)CC3OCC3(OC(C)=O)C2C(OC(=O)c2ccccc2)C2(O)CC(OC(=O)C(O)C(NC(=O)c3ccccc3)c3ccccc3)C(C)=C1C2(C)C (configuration not stated)

Output line:
1: 1.2; 2: 0.313; 3: 1.12; 4: 1.98

For every item in the list below, what is its measured Wnt reporter firefly/Renilla luciferase ratio?
1. CC(=O)c1ccc2c(c1)[C@H](NC(=O)c1ccc(F)cc1)[C@@H](O)C(C)(C)O2
2. CCOCCOCCOCCO [2-[2-(2-Ethoxyethoxy)ethoxy]ethanol]
3. Cc1ccc(C)c(C)c1
4. CCCCC(CC)COC(=O)CCCCCCCC(=O)OCC(CC)CCCC (configuration not stated) [Bis(2-ethylhexyl) nonanedioate]
5. CC1(C)C(=O)N(Cl)C(=O)N1Cl
6. Cc1cccc(C)c1O
7. O=c1ccn(C2OC(COP(=O)(O)OP(=O)(O)OP(=O)(O)O)C(O)C2O)c(=O)[nH]1 (configuration not stated)
8. NC(=O)N/N=C/c1ccc([N+](=O)[O-])o1

Output line:
[1.43, 1.62, 1.09, 1.24, 1.63, 1.16, 1.94, 0.32]

For every item in the list below, what is its measured Wnt reporter firefly/Renilla luciferase ratio?
1. C#CCOC(=O)[C@@H](C)Oc1ccc(Oc2ncc(Cl)cc2F)cc1
2. Nc1ccc2c(c1)C(=O)c1ccccc1C2=O
3. Cc1cc(F)ccc1-c1cc(N2CC[C@@H](O)[C@H]2CO)ncc1N(C)C(=O)C(C)(C)c1cc(C(F)(F)F)cc(C(F)(F)F)c1
4. CCCCOC(=O)C(C)Oc1ccc(Oc2ccc(C(F)(F)F)cn2)cc1 (configuration not stated)
5. CCCCOC(=O)[C@@H](C)Oc1ccc(Oc2ccc(C(F)(F)F)cn2)cc1
6. O=C(OCCOCCOC(=O)c1ccccc1)c1ccccc1 [Diethylene glycol dibenzoate]
7. OCCNCCO
8. NC(=O)N1C(=O)C(C(=O)c2cc(Cl)cs2)c2cc(F)c(Cl)cc21 (configuration not stated)

Output line:
1. 0.479
2. 1.58
3. 0.311
4. 1.13
5. 1.67
6. 1.44
7. 2.49
8. 1.26

For every item in the list below, what is its measured Wnt reporter firefly/Renilla luciferase ratio?
1. O=c1c(-c2ccc(O)cc2)coc2cc(O)ccc12
2. Cc1ccc2ncccc2c1
3. CCCCOC(=O)c1ccccc1 [Butyl benzoate]

Output line:
0.372
1.81
1.11

###

system: HEK293T (UBE3A T485A transfected, BAR Wnt reporter); test: Wnt reporter firefly/Renilla luciferase ratio relative to plate median (fold (linear ratio)); higher = more Wnt/beta-catenin reporter activation; conditions: concentration: 0.01 uM; 24 h
Whole data set: some 1,100 compounds, median “Wnt reporter firefly/Renilla luciferase ratio relative to plate median” near 1.1, cut for the highest 2% near 1.6. The list comes from a sample in which the highest values are over-represented; it also holds close analogues and randomly drawn compounds.
Exercise: for every item that follows, state its recorded Wnt reporter firefly/Renilla luciferase ratio.
Numbers only.

Cc1cnc(-c2cnc(NCCNc3ccc(C#N)cn3)nc2-c2ccc(Cl)cc2Cl)[nH]1 :: 1.03
O=C(CCCCCCC(=O)Nc1ccccc1)NO [Vorinostat (SAHA)] :: 1.33
CCN(Cc1c(F)cccc1Cl)c1c([N+](=O)[O-])cc(C(F)(F)F)cc1[N+](=O)[O-] :: 1.23
Oc1ccc(C(c2ccc(O)cc2)C(Cl)(Cl)Cl)cc1 [2,2-Bis(4-hydroxyphenyl)-1,1,1-trichloroethane] :: 1.02
CC(=O)OC1C(=O)C2(C)C(O)CC3OCC3(OC(C)=O)C2C(OC(=O)c2ccccc2)C2(O)CC(OC(=O)C(O)C(NC(=O)c3ccccc3)c3ccccc3)C(C)=C1C2(C)C (stereo not given) :: 1.29
O=c1nc(-c2ccc(C(F)(F)F)cc2)[nH]c2c1CSCC2 :: 0.923
CCCN(CCC)C(=O)SCC :: 1.35
COc1cc2c3c(n(CCCn4ccnc4)c(=O)c2cc1OC)-c1cc2c(cc1C3=O)OCO2.Cl :: 1.15
O=c1c(-c2ccc(O)cc2)coc2cc(O)cc(O)c12 :: 1.71

Proceeding to the next compound to report its Wnt reporter firefly/Renilla luciferase ratio.
Input line: Which value of Wnt reporter firefly/Renilla luciferase ratio has been reported for CCSC(=O)N(CC(C)C)CC(C)C [Butylate] in the records?
Output line: 1.05

###

Exercise: for every item that follows, state its recorded Wnt reporter firefly/Renilla luciferase ratio.
tested on: HEK293T (UBE3A T485A transfected, BAR Wnt reporter); test: Wnt reporter firefly/Renilla luciferase ratio relative to plate median (fold (linear ratio)); higher = more Wnt/beta-catenin reporter activation; conditions: concentration: 100 uM; 24 h
The full ranking holds about 1,100 compounds; the median of “Wnt reporter firefly/Renilla luciferase ratio relative to plate median” is about 1.1, and the highest 2% start at about 1.6. The sample holds the highest values, similar compounds and a random draw of the others, so the mix is not that of the screen.

Consider the reported Wnt reporter firefly/Renilla luciferase ratio for these compounds:
C=C(C)C(=O)OCCC(F)(F)C(F)(F)C(F)(F)C(F)(F)C(F)(F)C(F)(F)F [Tridecafluorohexylethyl methacrylate] :: 1.16
O=C([N-]S(=O)(=O)/C=C/c1ccccc1)c1ccc(F)cc1Cl.[Na+] :: 0.3
CN(C)[C@@H]1C(O)=C(C(N)=O)C(=O)[C@@]2(O)C(O)=C3C(=O)c4c(O)cccc4[C@@](C)(O)[C@H]3[C@H](O)[C@@H]12.O.O [Oxytetracycline dihydrate] :: 0.951
CN1C(=O)CC[C@H]1c1cccnc1 [Cotinine] :: 1.13
CN(C)[C@@H]1C(O)=C(C(N)=O)C(=O)[C@@]2(O)C(O)=C3C(=O)c4c(O)cccc4[C@@](C)(O)[C@H]3C[C@@H]12 [Tetracycline] :: 0.703

For every item in the list below, what is its measured Wnt reporter firefly/Renilla luciferase ratio?
1. OC[C@H]1O[C@@H]2O[C@H]3[C@H](O)[C@@H](O)[C@@H](O[C@H]4[C@H](O)[C@@H](O)[C@@H](O[C@H]5[C@H](O)[C@@H](O)[C@@H](O[C@H]6[C@H](O)[C@@H](O)[C@@H](O[C@H]7[C@H](O)[C@@H](O)[C@@H](O[C@H]1[C@H](O)[C@H]2O)O[C@@H]7CO)O[C@@H]6CO)O[C@@H]5CO)O[C@@H]4CO)O[C@@H]3CO [alpha-Cyclodextrin]
2. CN(C)[C@@H]1C(O)=C(C(N)=O)C(=O)[C@@]2(O)C(O)=C3C(=O)c4c(O)cccc4[C@@](C)(O)[C@H]3[C@H](O)[C@@H]12.Cl [Oxytetracycline hydrochloride]
3. CC(C(C)N1CC(=O)NC(=O)C1)N1CC(=O)NC(=O)C1 (stereo not drawn)

Output line:
[0.971, 0.0778, 1.53]
